# system: T1, Human ALPPL2 (leucine zipper) (human)
# T1 construct: Whole entry: fused with a cysteine stabilised leucine zipper and His tag; also called hALPPL2
# T1 chain: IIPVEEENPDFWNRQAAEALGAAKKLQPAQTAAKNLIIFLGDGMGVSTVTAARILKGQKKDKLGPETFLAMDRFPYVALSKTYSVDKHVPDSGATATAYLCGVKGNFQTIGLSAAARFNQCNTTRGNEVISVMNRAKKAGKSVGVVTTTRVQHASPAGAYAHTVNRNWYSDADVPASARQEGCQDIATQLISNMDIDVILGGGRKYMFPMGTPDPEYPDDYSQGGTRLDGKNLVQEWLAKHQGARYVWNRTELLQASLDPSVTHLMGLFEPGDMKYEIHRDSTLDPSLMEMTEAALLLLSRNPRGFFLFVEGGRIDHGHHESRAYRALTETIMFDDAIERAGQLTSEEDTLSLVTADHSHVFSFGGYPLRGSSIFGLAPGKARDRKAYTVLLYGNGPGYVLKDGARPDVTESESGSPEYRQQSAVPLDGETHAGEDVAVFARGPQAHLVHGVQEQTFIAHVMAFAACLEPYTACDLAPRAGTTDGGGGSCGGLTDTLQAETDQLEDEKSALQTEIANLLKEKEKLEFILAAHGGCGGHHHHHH
# protocol.details: BLI, antigen immobilised
pKd: −log10 of the molar value.
Decision: pKd >= 9 yields y, all other cases yield n.

Qu. Is reported pKd greater than or equal to 9 here: B01 His (VHH, not shown: small tags and cut ends) VHH: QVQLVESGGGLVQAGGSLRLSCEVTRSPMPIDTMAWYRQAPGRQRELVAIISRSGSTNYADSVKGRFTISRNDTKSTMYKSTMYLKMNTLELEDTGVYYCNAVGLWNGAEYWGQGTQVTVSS
Ans. y

Qu. And the next one, A06 His (VHH, not shown: small tags and cut ends, also called #250) VHH: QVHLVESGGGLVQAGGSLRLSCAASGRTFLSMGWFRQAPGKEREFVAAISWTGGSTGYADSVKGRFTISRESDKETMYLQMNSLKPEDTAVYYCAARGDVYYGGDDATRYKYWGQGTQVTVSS ?
Ans. n

Qu. And the next one, F05 His (VHH, not shown: small tags and cut ends) VHH: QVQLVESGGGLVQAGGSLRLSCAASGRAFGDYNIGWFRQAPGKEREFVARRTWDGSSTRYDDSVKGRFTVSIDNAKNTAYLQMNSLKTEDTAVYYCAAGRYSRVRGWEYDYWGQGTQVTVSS ?
Ans. y
